Reference source: PubChem BioAssay (NCATS)

- Measurement notes: Quantitative High-Throughput drug screen in 47 multiple myeloma cell lines against the NCATS MIPE library collection: OCIMY7_PLB cell viability assay (AID 1918987); also: nearly all actives have a fitted effect of over 65% in size; also: potency is read from the fitted curve at half-maximal effect
- Condition parameters: OCI-MY7 myeloma viability, CellTiter-Glo ATP, 48 h; series mostly up to 45.8 µM
Inconclusive results are not listed. Activity calls are given as the source filed them. Calls follow the shape of the dose curve; as a rule, active = well fitted cell-killing curve with a large enough effect; inconclusive = small, poorly fitted or top-dose-only effect, or effect the other way; inactive = no such curve, though single readings can be large or run the other way. Non-standard residues stand in square brackets, D forms with d. Residues, ends and D or L forms follow the SMILES beside them. *: point of attachment. Sta = CC(C)C[C@H](N)[C@@H](O)CC(=O)O; Isovaleryl = CC(C)CC(=O)*
Measured endpoint: Potency

Take a look at these entries with their results.
INSERT INTO results (compound, measured_endpoint, observed_value) VALUES
  ('CN(C)c1ccc2nc3ccc(=[N+](C)C)cc-3sc2c1', 'Potency', '2.35 µM (active)'),
  ('Oc1ccc(-c2nc(-c3ccc(F)cc3)c(-c3ccncc3)[nH]2)cc1', 'Potency', '9.35 µM (active)'),
  ('Cc1cccc(C)c1OCC(=O)N[C@@H](Cc1ccccc1)[C@@H](O)C[C@H](Cc1ccccc1)NC(=O)[C@H](C(C)C)N1CCCNC1=O', 'Potency', '11.8 µM (active)'),
  ('NNc1nncc2ccccc12', 'Potency', 'inactive');

query: Recorded Potency for CC(C)CC(=O)N[C@H](C(=O)N[C@H](C(=O)N[C@@H](CC(C)C)[C@@H](O)CC(=O)N[C@@H](C)C(=O)N[C@@H](CC(C)C)[C@@H](O)CC(=O)O)C(C)C)C(C)C (Isovaleryl-VV[Sta]A[Sta]-OH) , please?
result: inactive

query: Recorded Potency for CC(C)C[C@H](NC(=O)[C@H](Cc1ccccc1)NC(=O)c1cnccn1)B(O)O , please?
result: 0.001 µM (active)

query: Recorded Potency for CS(=O)(=O)OCCCCOS(C)(=O)=O , please?
result: inactive

query: Recorded Potency for O=C(CCc1ccc(O)cc1)c1c(O)cc(O)cc1O , please?
result: 0.148 µM (active)

query: Recorded Potency for CCN(CC)CCOc1ccc(Cc2ccccc2)cc1 , please?
result: inactive

query: Recorded Potency for COC1=C(OC)C(=O)C(CCCCCCCCCCO)=C(C)C1=O , please?
result: 16.6 µM (active)

query: Recorded Potency for O=C(O)c1cn(-c2ccc(F)cc2)c2cc(N3CCNCC3)c(F)cc2c1=O , please?
result: inactive

query: Recorded Potency for Nc1nc(Cl)nc2c1ncn2[C@H]1C[C@H](O)[C@@H](CO)O1 , please?
result: 0.001 µM (active)

query: Recorded Potency for COC(=O)C1=C(C)NC(C)=C(C(=O)OC(C)C)C1c1cccc2nonc12 (stereo not drawn) , please?
result: 6.62 µM (active)
